Test Details: Conversion (release) of prodrug salts to parent compound in mouse plasma
Type: in vitro ADME
Conditions Used: mouse, plasma, 37 °C, 2 h, read-out: Release rate (conversion to Compound 1)
Measurement Kind: metabolised at 2 h (%)

1) C[C@@]12CC[C@@H]3[C@H](OC(=O)[C@H]3CN3CCOCC3)[C@@H]3[C@]1(CC[C@@]3(C)O)C2: 14.1
2) C[C@@]12CC[C@@H]3[C@H](OC(=O)[C@H]3CN3CCCCCCC3)[C@@H]3[C@]1(CC[C@@]3(C)O)C2: 14.5
3) CN(C)C[C@@H]1C(=O)O[C@H]2[C@H]1CC[C@@]1(C)C[C@]13CC[C@@](C)(O)[C@H]23: 14
4) C[C@@]12CC[C@@H]3[C@H](OC(=O)[C@H]3CN3CCCCC3)[C@@H]3[C@]1(CC[C@@]3(C)O)C2: 17.1
5) C[C@@]12CC[C@@H]3[C@H](OC(=O)[C@H]3CN3CCNCC3)[C@@H]3[C@]1(CC[C@@]3(C)O)C2: 17.1
6) C[C@@]12CC[C@@H]3[C@H](OC(=O)[C@H]3CN3CCC3)[C@@H]3[C@]1(CC[C@@]3(C)O)C2: 14.8
7) CCN(CC)C[C@@H]1C(=O)O[C@H]2[C@H]1CC[C@@]1(C)C[C@]13CC[C@@](C)(O)[C@H]23: 14.5
8) CCN1CCN(C[C@@H]2C(=O)O[C@H]3[C@H]2CC[C@@]2(C)C[C@]24CC[C@@](C)(O)[C@H]34)CC1: 17.4
9) C[C@@]12CC[C@@H]3[C@H](OC(=O)[C@H]3CN3CCC(N4CCOCC4)CC3)[C@@H]3[C@]1(CC[C@@]3(C)O)C2: 14.8
10) CC(C)N(C[C@@H]1C(=O)O[C@H]2[C@H]1CC[C@@]1(C)C[C@]13CC[C@@](C)(O)[C@H]23)C(C)C: 13.9
11) C[C@@]12CC[C@@H]3[C@H](OC(=O)[C@H]3CN3CCCC3)[C@@H]3[C@]1(CC[C@@]3(C)O)C2: 16.8
12) CCCCN(CCCC)C[C@@H]1C(=O)O[C@H]2[C@H]1CC[C@@]1(C)C[C@]13CC[C@@](C)(O)[C@H]23: 13.6
13) C[C@@]12CC[C@@H]3[C@H](OC(=O)[C@H]3CN3CCC4(CCCC4)CC3)[C@@H]3[C@]1(CC[C@@]3(C)O)C2: 17.2
14) C[C@@]12CC[C@@H]3[C@H](OC(=O)[C@H]3CN3CC4CCCC4C3)[C@@H]3[C@]1(CC[C@@]3(C)O)C2 (some centres unmarked): 14.4

###

Test Details: Conversion (release) of prodrug salts to parent compound in HEPES buffer pH 7.4
Format: in vitro ADME
Conditions Used: hepes buffer, pH 7.4, HEPES pH 7.4, 37 °C, 12 h; read-out: Release rate (conversion to Compound 83)
Measurement Kind: degraded at 12 h (%)

1) CC1=C2CC[C@@](C)(OC(=O)N3CCCCC3)[C@@H]2[C@H]2OC(=O)[C@@H](CN(C)C)[C@@H]2CC1: 51.8
2) CC1=C2CC[C@@](C)(OC(=O)N3CCCCC3)[C@@H]2[C@H]2OC(=O)[C@@H](CN3CCCC3)[C@@H]2CC1: 51.4
